target: Cytochrome P450 2C9 (Homo sapiens)
Sequence (P11712 whole entry): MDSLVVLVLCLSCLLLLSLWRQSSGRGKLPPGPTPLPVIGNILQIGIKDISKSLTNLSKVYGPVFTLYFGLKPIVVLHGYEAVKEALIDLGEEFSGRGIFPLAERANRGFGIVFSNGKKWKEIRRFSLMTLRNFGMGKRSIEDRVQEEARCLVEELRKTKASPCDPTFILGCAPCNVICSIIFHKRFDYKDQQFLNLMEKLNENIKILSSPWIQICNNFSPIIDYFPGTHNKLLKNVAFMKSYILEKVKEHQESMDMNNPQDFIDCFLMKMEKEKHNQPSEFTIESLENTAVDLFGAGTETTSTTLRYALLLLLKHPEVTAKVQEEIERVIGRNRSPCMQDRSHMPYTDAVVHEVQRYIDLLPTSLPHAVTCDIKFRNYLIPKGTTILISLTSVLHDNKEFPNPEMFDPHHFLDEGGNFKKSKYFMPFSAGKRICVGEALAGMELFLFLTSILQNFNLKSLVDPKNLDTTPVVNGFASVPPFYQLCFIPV

# compound, target.desc, quantity.unit, IC50
data = [
    ("COC(=O)C(C)(C)C(c1ccc(Nc2ccc3ccccc3c2)cc1)n1ccnc1 (stereo unspecified)", "Cytochrome P450 2C9 (Homo sapiens)", "nM", 1500),
]

---

target: CYP2D6 (Homo sapiens, UniProt P10635); test: Inhibition of CYP2D6 in human liver microsomes at 0.4 uM; format: ADME, Microsome
Sequence (P10635 whole entry): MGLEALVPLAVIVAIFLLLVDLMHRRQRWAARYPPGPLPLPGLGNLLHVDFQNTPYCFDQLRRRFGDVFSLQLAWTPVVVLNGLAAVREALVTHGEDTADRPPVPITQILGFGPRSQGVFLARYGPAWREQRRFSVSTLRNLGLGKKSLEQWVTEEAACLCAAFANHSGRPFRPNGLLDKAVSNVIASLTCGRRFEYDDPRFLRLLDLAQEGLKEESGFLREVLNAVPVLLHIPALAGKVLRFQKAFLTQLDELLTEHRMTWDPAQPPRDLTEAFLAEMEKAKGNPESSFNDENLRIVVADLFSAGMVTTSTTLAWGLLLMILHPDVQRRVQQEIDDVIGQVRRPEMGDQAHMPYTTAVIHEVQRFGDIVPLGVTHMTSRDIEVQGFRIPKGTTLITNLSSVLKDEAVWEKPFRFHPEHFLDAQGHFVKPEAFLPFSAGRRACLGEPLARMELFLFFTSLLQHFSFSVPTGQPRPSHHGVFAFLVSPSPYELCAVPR
endpoint: inhibition at 0.4 µM (%)

# compound, endpoint, val
records = [
    ("COC(=O)C(C)(C)C(c1ccc(Nc2cccc3ccccc23)cc1)n1ccnc1 (centres undefined)", "inhibition at 0.4 µM", 53),
    ("COC(=O)C(C)(C)C(c1ccc(Nc2ccc3ccccc3c2)cc1)n1ccnc1 (centres undefined)", "inhibition at 0.4 µM", 25),
    ("COC(=O)C(C)(C)C(c1ccc(Nc2nc3ccccc3o2)cc1)n1ccnc1 (centres undefined)", "inhibition at 0.4 µM", 55),
    ("COC(=O)C(C)(C)C(c1ccc(Nc2nc3ccccc3s2)cc1)n1ccnc1 (centres undefined)", "inhibition at 0.4 µM", 11),
]
